Attribution: ChEMBL document CHEMBL4680176

// reported IC50 for each item listed
molecular target: DNA (cytosine-5)-methyltransferase 1 (Homo sapiens, UniProt P26358); test: Inhibition of recombinant human DNMT1 using poly(dl-dC) as substrate by hotspot assay; details: read-out: IC50
Sequence (P26358 whole entry): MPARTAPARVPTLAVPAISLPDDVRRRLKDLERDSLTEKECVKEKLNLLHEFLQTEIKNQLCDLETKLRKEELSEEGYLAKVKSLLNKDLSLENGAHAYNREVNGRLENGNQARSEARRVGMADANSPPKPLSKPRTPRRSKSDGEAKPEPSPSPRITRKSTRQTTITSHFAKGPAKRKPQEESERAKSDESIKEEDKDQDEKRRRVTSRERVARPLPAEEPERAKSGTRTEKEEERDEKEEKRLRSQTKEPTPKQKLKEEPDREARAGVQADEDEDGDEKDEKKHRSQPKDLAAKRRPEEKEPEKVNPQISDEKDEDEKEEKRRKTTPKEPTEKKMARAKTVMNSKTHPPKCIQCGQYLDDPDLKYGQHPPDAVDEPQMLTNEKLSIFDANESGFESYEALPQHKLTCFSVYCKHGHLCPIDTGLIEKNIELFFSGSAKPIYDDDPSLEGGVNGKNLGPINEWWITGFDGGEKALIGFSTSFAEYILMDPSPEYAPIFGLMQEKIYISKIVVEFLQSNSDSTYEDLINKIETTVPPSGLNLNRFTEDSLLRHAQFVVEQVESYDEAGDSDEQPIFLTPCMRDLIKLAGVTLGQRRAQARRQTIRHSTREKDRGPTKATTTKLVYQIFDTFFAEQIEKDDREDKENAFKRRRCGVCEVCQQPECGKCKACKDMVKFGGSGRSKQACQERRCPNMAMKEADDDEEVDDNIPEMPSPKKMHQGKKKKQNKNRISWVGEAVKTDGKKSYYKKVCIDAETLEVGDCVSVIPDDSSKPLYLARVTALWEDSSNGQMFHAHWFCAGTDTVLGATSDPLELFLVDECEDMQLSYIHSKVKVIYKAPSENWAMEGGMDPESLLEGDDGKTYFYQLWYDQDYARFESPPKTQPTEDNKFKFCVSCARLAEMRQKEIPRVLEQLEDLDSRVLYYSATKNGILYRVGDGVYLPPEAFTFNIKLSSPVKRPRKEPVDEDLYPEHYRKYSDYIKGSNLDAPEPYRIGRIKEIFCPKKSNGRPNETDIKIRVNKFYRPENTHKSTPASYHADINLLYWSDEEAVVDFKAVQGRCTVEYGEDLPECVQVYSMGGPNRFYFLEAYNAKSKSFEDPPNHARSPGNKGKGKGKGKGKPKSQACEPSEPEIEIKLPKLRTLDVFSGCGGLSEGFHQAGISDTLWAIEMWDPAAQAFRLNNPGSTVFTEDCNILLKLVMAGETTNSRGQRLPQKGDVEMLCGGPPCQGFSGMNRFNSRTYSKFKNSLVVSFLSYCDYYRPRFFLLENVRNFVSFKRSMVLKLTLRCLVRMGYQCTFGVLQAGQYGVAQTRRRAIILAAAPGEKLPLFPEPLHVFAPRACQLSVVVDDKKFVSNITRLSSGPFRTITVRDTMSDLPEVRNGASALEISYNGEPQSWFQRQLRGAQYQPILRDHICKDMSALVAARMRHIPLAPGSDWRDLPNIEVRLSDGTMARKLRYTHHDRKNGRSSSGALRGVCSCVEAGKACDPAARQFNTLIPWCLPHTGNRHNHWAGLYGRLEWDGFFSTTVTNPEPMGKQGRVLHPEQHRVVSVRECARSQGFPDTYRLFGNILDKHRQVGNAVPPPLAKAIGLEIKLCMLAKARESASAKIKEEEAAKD

- Structure: "CC(C)(C)c1ccc(NC(=O)c2ncn(CC(=O)NCCn3ccc4c(N)ncnc43)n2)cc1"
  U: "µM"
  Relation Operator: "="
  IC50: 248
- Structure: "Cc1ccc(NC(=O)c2ncn(CC(=O)NCCn3ccc4c(N)ncnc43)n2)cc1C"
  U: "µM"
  Relation Operator: ">"
  IC50: 250

* * *

target: Histone-lysine N-methyltransferase, H3 lysine-79 specific (Homo sapiens); assay: Inhibition of recombinant human N-terminal GST-tagged DOT1L (1 to 420 residues) expressed in Escherichia coli BL21 (DE3) using histone as substrate incubated for 1 hr by MTase-glo based luminescence assay
pIC50: −log10 of the molar value.
// reported pIC50 for each item listed

- Structure: "CC(C)(C)c1ccc(NC(=O)c2ncn(CC(=O)NCCn3ccc4c(N)ncnc43)n2)cc1"
  Relation Operator: "="
  pIC50: 6.00
- Structure: "O=C(Cn1cnc(C(=O)NC2CCCCC2)n1)NCc1ccc2[nH]ncc2c1"
  Relation Operator: "<"
  pIC50: 4.00
- Structure: "Cc1ccc2nc(NC(=O)c3ncn(CC(=O)NCc4ccc5c(c4)OCO5)n3)[nH]c2c1"
  Relation Operator: "="
  pIC50: 4.25
- Structure: "Nc1ncnc2c1ccn2CCNC(=O)Cn1cnc(C(=O)NC2CCCCC2)n1"
  Relation Operator: "<"
  pIC50: 4.00
- Structure: "O=C(Cn1cnc(C(=O)NC2CCCCC2)n1)NCc1ccc2c(c1)OCO2"
  Relation Operator: "<"
  pIC50: 4.00

* * *

molecular target: UniProtKB O60678; assay: Inhibition of recombinant human PRMT3 using histone H4 as substrate by hotspot assay; settings: read-out: IC50
Sequence (O60678 whole entry): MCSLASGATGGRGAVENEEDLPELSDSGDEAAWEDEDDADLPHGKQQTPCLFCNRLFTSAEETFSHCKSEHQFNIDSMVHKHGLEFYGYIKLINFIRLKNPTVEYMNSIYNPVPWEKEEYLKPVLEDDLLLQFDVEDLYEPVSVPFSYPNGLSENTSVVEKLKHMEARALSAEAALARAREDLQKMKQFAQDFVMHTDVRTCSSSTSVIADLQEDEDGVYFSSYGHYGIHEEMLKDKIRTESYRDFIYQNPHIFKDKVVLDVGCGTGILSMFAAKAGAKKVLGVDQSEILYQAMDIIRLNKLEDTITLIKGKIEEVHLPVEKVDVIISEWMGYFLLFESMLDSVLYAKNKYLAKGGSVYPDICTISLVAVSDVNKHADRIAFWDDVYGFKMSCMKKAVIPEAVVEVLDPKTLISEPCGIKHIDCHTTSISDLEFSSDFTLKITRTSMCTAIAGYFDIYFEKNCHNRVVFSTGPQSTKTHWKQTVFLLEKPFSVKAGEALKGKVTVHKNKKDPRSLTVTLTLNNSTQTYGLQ
pIC50: −log10 of the molar value.

- Structure: "CC(C)(C)c1ccc(NC(=O)c2ncn(CC(=O)NCc3ccc4c(N)nccc4c3)n2)cc1"
  pIC50: 4.60
- Structure: "CC(C)(C)c1ccc(NC(=O)c2ncn(CC(=O)NCCn3ccc4c(N)ncnc43)n2)cc1"
  pIC50: 3.94
- Structure: "Nc1ncnc2c1ncn2[C@@H]1O[C@H](CSCC[C@H](N)C(=O)O)[C@@H](O)[C@H]1O"
  pIC50: 6.12

* * *

Target: Protein arginine N-methyltransferase 7 (Homo sapiens, UniProt Q9NVM4)
Sequence (Q9NVM4 whole entry): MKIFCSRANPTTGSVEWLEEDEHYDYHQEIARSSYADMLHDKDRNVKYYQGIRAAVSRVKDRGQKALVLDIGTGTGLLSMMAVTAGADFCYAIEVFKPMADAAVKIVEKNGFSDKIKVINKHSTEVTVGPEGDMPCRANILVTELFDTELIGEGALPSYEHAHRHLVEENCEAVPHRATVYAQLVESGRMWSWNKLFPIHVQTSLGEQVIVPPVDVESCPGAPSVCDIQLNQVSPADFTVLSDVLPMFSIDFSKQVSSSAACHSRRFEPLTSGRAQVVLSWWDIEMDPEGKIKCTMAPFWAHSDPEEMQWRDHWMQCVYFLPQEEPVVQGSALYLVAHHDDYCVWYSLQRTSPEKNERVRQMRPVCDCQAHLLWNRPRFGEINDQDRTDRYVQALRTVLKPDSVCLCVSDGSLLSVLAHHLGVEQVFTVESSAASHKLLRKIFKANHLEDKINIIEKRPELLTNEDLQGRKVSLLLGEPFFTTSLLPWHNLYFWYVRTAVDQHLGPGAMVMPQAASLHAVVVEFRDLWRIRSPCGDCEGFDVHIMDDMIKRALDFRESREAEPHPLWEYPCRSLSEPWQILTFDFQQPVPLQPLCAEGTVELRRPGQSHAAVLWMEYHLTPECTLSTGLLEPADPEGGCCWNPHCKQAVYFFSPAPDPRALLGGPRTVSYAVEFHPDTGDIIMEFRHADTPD
Experiment: Inhibition of recombinant human PRMT7 using GST-GAR as substrate by hotspot assay
Settings: read-out: IC50
Value Kind: IC50 (µM)

- Structure: "CC(C)(C)c1ccc(NC(=O)c2ncn(CC(=O)NCc3ccc4c(N)nccc4c3)n2)cc1"
  U: "µM"
  Observed Result: 61.5
- Structure: "Cc1ccc(NC(=O)c2ncn(CC(=O)NCc3ccc4c(N)nccc4c3)n2)cc1C"
  U: "µM"
  Observed Result: 69.4

* * *

experiment: Aqueous solubility of compound; type: physicochemical

- Structure: "CC(C)(C)c1ccc(NC(=O)c2ncn(CC(=O)NCCn3ccc4c(N)ncnc43)n2)cc1"
  solubility (µM): 687

* * *

// reported IC50 for each item listed
target: UniProt Q8TEK3; assay: Inhibition of recombinant human N-terminal GST-tagged DOT1L (1 to 420 residues) expressed in Escherichia coli BL21 (DE3) using histone as substrate incubated for 1 hr by MTase-glo based luminescence assay

- Structure: "Cc1ccc(NC(=O)c2ncn(CC(=O)NCCn3ccc4c(N)ncnc43)n2)cc1C"
  IC50: "10.9 µM"
- Structure: "Nc1nccc2cc(CNC(=O)Cn3cnc(C(=O)NC4CCCCC4)n3)ccc12"
  IC50: "> 100 µM"
- Structure: "Cc1ccc(NC(=O)c2ncn(CC(=O)NCCn3cnc4[nH]ccc4c3=O)n2)cc1C"
  IC50: "138 µM"
- Structure: "CC(C)(C)c1ccc(NC(=O)c2ncn(CC(=O)NCc3ccc4c(N)nccc4c3)n2)cc1"
  IC50: "19.5 µM"
- Structure: "CC(C)(C)c1ccc(NC(=O)c2ncn(CC(=O)NCc3ccc4c(c3)OCO4)n2)cc1"
  IC50: "23.5 µM"
- Structure: "Cc1ccc(NC(=O)c2ncn(CC(=O)NCc3ccc4c(c3)OCO4)n2)cc1C"
  IC50: "40.8 µM"
- Structure: "Cc1ccc(NC(=O)c2ncn(CC(=O)NCc3ccc4c(N)nccc4c3)n2)cc1C"
  IC50: "69.2 µM"
- Structure: "CC(C)(C)c1ccc(NC(=O)c2ncn(CC(=O)NCc3ccc4[nH]ncc4c3)n2)cc1"
  IC50: "22.4 µM"
- Structure: "Cc1ccc(NC(=O)c2ncn(CC(=O)NCc3ccc4[nH]ncc4c3)n2)cc1C"
  IC50: "36.9 µM"

* * *

tested on: Bone marrow cell; assay: Antiproliferative activity against mouse bone marrow cell transformed with MLL-AF9 assessed as reduction in cell growth measured after 9 days by hemocytometry; assay type: functional, cell-based; settings: 216 h
pIC50: −log10 of the molar value.
Value Kind: pIC50

- Structure: "CC(C)(C)c1ccc(NC(=O)c2ncn(CC(=O)NCCn3ccc4c(N)ncnc43)n2)cc1"
  Target Under Test: "Bone marrow cell"
  Observed Result: 5.38

* * *

target: Protein arginine N-methyltransferase 8 (Homo sapiens, UniProt Q9NR22); assay: Inhibition of recombinant human PRMT8 using histone H4 as substrate by hotspot assay
Sequence (Q9NR22 whole entry): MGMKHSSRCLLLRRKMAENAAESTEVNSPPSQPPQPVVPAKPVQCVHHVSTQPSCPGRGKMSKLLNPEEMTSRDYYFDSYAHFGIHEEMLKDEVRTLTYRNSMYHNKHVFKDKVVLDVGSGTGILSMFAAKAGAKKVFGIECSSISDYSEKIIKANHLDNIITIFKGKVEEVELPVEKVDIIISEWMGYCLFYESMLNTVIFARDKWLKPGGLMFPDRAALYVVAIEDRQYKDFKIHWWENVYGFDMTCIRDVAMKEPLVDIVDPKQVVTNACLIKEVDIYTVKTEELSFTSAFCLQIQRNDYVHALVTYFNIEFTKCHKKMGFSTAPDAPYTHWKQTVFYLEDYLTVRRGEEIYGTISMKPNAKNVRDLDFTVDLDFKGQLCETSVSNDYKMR
pIC50: −log10 of the molar value.
Value Kind: pIC50

- Structure: "Nc1nccc2cc(CNC(=O)Cn3cnc(C(=O)NC4CCCCC4)n3)ccc12"
  Relation Operator: "="
  Observed Result: 4.02
- Structure: "Cc1ccc(NC(=O)c2ncn(CC(=O)NCc3ccc4c(N)nccc4c3)n2)cc1C"
  Relation Operator: "="
  Observed Result: 3.67
- Structure: "CC(C)(C)c1ccc(NC(=O)c2ncn(CC(=O)NCc3ccc4c(N)nccc4c3)n2)cc1"
  Relation Operator: "="
  Observed Result: 4.27
- Structure: "CC(C)(C)c1ccc(NC(=O)c2ncn(CC(=O)NCCn3ccc4c(N)ncnc43)n2)cc1"
  Relation Operator: "<"
  Observed Result: 3.60

* * *

target: Histone-lysine N-methyltransferase EZH2 (Homo sapiens); test: Inhibition of recombinant human EZH2 using core histone as substrate by hotspot assay; details: read-out: IC50
Sequence (Q15910 whole entry): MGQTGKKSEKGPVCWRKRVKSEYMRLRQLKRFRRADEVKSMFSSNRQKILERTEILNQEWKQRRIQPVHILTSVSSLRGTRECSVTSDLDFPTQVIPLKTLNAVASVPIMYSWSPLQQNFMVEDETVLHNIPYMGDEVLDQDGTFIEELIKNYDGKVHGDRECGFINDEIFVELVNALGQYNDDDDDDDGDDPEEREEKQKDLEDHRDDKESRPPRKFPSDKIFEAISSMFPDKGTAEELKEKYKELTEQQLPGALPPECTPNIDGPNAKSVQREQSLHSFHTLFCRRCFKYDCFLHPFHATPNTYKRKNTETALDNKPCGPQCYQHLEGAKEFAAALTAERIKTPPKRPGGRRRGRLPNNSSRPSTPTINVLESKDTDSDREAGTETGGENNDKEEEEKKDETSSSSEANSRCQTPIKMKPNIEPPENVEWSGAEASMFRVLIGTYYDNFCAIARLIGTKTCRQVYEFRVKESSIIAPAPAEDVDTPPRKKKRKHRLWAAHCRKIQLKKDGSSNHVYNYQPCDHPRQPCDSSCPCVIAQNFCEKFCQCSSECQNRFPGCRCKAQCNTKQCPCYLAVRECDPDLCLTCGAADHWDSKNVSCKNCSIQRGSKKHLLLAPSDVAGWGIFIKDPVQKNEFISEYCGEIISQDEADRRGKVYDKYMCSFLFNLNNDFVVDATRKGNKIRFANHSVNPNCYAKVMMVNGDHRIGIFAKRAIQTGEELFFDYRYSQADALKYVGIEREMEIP
pIC50: −log10 of the molar value.
Value Kind: pIC50

- Structure: "CC(C)(C)c1ccc(NC(=O)c2ncn(CC(=O)NCc3ccc4[nH]ncc4c3)n2)cc1"
  Observed Result: "< 3.60"

* * *

molecular target: Histone-lysine N-methyltransferase, H3 lysine-79 specific (Homo sapiens, UniProt Q8TEK3); assay: Inhibition of recombinant human N-terminal GST-tagged DOT1L (1 to 420 residues) expressed in Escherichia coli BL21 (DE3) using nucleosome as substrate incubated for 1 hr in presence of [3H]-SAM by liquid scintillation counting method
Sequence (Q8TEK3 whole entry, the tested form may be a part): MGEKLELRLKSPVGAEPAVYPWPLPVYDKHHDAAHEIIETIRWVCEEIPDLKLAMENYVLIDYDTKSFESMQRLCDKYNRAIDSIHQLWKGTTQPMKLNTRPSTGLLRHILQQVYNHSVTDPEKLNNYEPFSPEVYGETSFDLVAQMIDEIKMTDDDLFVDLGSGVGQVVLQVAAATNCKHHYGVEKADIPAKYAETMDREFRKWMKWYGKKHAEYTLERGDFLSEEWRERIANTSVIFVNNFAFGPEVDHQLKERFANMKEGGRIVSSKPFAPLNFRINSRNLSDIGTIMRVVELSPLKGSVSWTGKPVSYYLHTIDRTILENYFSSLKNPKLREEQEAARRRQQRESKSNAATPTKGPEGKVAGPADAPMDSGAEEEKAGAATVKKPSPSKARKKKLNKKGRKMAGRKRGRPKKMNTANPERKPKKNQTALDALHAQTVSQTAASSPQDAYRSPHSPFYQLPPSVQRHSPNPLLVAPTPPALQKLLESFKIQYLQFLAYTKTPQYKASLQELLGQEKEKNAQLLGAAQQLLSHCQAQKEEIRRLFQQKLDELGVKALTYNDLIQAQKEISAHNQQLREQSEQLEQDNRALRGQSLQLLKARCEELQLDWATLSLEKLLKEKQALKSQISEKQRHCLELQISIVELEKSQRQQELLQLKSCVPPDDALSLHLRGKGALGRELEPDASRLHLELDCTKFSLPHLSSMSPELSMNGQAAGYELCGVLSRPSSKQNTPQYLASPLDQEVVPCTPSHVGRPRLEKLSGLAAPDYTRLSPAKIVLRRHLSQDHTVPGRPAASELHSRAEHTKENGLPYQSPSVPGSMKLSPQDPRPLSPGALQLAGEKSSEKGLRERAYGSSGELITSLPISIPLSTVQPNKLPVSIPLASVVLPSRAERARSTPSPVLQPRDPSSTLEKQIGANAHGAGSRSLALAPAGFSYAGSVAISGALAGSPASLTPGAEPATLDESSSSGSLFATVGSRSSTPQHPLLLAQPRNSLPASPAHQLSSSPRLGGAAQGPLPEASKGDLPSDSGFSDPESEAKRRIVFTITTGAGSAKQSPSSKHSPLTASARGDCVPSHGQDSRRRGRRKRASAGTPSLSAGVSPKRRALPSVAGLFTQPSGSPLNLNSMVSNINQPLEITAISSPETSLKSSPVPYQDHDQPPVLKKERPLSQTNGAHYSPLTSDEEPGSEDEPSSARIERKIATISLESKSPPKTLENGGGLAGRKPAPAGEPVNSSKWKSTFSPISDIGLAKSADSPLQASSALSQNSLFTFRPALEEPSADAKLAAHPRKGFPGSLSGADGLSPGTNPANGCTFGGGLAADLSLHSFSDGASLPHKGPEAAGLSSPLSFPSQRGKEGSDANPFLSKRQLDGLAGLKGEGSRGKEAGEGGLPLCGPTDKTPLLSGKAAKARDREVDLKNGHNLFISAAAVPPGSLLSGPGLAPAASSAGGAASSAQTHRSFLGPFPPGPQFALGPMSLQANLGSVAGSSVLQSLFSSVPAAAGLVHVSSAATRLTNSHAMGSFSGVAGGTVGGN

- Structure: "Nc1ncnc2c1ncn2[C@@H]1O[C@H](CNC(=O)[C@@H](N)Cc2ccc(C(F)(F)F)cc2)[C@@H](O)[C@H]1O"
  IC50: "168 µM"
- Structure: "Nc1ncnc2c1ncn2[C@@H]1O[C@H](CNC(=O)[C@@H](N)Cc2ccc(C(=O)c3ccccc3)cc2)[C@@H](O)[C@H]1O"
  IC50: "57 µM"
- Structure: "Nc1ncnc2c1ncn2[C@@H]1O[C@H](CNCc2ccc(OCC(=O)Nc3nccs3)cc2)[C@@H](O)[C@H]1O"
  IC50: "90.4 µM"
- Structure: "Cc1ccc(NC(=O)c2ncn(CC(=O)NCc3nc4ccccc4[nH]3)n2)cc1C"
  IC50: "130 µM"
- Structure: "Nc1ncnc2c1ncn2[C@@H]1O[C@H](C(=O)N2CCC[C@H]2C(=O)OCc2ccccc2)[C@@H](O)[C@H]1O"
  IC50: "85.3 µM"
- Structure: "Nc1ncnc2c1ncn2[C@@H]1O[C@H](CNCc2ccc(OCC(=O)Nc3ccccn3)cc2)[C@@H](O)[C@H]1O"
  IC50: "54.9 µM"
- Structure: "O=C(Nc1ccn(CCCN2CCC(c3ccccc3)CC2)c(=O)n1)OCc1ccccc1"
  IC50: "710 µM"
- Structure: "Cc1ccc(NC(=O)c2ncn(CC(=O)NCc3ccc4c(c3)OCO4)n2)cc1C"
  IC50: "82.9 µM"
- Structure: "Nc1ncnc2c1ncn2[C@@H]1O[C@H](CNCc2ccc(-c3cc(C(F)(F)F)ccc3Cl)o2)[C@@H](O)[C@H]1O"
  IC50: "32.4 µM"
- Structure: "Nc1ncnc2c1ncn2[C@@H]1O[C@H](CNCc2ccc(OCc3ccccc3)cc2)[C@@H](O)[C@H]1O"
  IC50: "120 µM"
- Structure: "O=C(Nc1ccn(CCCNCc2ccc3c(c2)OCO3)c(=O)n1)OCc1ccccc1"
  IC50: "677 µM"
